# assay_notes: Plasma pharmacokinetics after oral gavage in mice
# Assay type: in vivo
# particulars: mouse, plasma, oral, Table 3; given as control formulation; read-out: mean residence time (MRT) of levodopa, control
property_name: MRT (h)
Reply with just the number (in h).

Return reported MRT. Input compound: N[C@@H](Cc1ccc(O)c(O)c1)C(=O)O [LD, levodopa]
2.6

----------
# assay_notes: Plasma pharmacokinetics after oral gavage in mice
# Format: in vivo
# particulars: mouse, plasma, oral, Table 3; given as casein-microcapsule; read-out: mean residence time (MRT) of levodopa, casein-microcapsule
# Description: The experimental mice were divided into two groups (control and F2) each comprising of five animals. Control formulation (as a solution) was prepared fresh each experimental day in 0.6% methyl cellulose diluted with saline solution. […]
property_name: MRT (h)
Number only, in h; omit the unit.

Annotate the compound N[C@@H](Cc1ccc(O)c(O)c1)C(=O)O with its measured MRT.
10.1
